The measured values listed here are drawn from patent US4083947A.

Each entry below carries its recorded Concentration Ratio; Adrenals: Ovaries.
Assay: Tissue distribution of selenium-75-labelled sterols in rats, sixth day post-injection
Type: in vivo, rats of the C.F.Y. strain
Conditions: rats, tail vein, dose: 1, 7: 40 μCi, 6: 50 μCi, 3: 30 μCi, 4: 1.5 μCi, 5: 10 μCi, 8: 6.3 μCi
assayEndpoint: Concentration Ratio; Adrenals: Ovaries

{"compound": "CC(C)CCC[C@@H](C)[C@H]1CC[C@H]2[C@@H]3C[C@@H](C[75Se]c4ccccc4)C4=C(CC[C@H](O)C4)[C@H]3CC[C@]12C [Example 8]", "endpointValue": 3.62}
{"compound": "CC(C)CCC[C@@H](C)[C@H]1CC[C@H]2[C@@H]3C[C@@H](C[75Se](C)=O)C4=C(CC[C@H](O)C4)[C@H]3CC[C@]12C (stereo partly shown) [Example 7]", "endpointValue": 5.1}
{"compound": "CC(C)CCC[C@@H](C)[C@H]1CC[C@H]2[C@@H]3C[C@@H](C[75Se]C4CCCCC4)C4=C(CC[C@H](O)C4)[C@H]3CC[C@]12C [Example 4]", "endpointValue": 1.6}
{"compound": "C[75Se]C[C@@H]1C[C@@H]2[C@H](CC[C@]3(C)[C@@H]([C@H](C)CCCC(C)C)CC[C@@H]23)C2=C1C[C@@H](O)CC2 [Example 1]", "endpointValue": 4.5}
{"compound": "CCCC[75Se]C[C@@H]1C[C@@H]2[C@H](CC[C@]3(C)[C@@H]([C@H](C)CCCC(C)C)CC[C@@H]23)C2=C1C[C@@H](O)CC2 [Example 3]", "endpointValue": 4.0}
{"compound": "CC(C)CCC[C@@H](C)[C@H]1CC[C@H]2[C@@H]3C[C@@H](C[75Se]Cc4ccccc4)C4=C(CC[C@H](O)C4)[C@H]3CC[C@]12C [Example 5]", "endpointValue": 2.6}
{"compound": "C[75Se]C[C@@H]1C[C@@H]2[C@H](CC[C@]3(C)[C@@H]([C@H](C)CCCC(C)C)CC[C@@H]23)C2=C1C[C@@H](OC(C)=O)CC2 [Example 6]", "endpointValue": 5.7}
